As shown below, each of these compounds has a reported melting point value.

Example cases with answers are listed next.
- compound: "CCS(=O)(=O)c1ccc(C2CC2)nc1-c1nc2cc(C(F)(F)F)cnc2n1C"
  result: "163 to 165 °C"
- compound: "CCSc1cc(C2CCCC2)cnc1-c1nc2cc(C(F)(F)F)cnc2n1C [Compound P2]"
  result: "130 to 132 °C"
- compound: "CCSc1cc(C2CCCCC2)cnc1-c1nc2cc(C(F)(F)F)cnc2n1C"
  result: "148 to 150 °C"

Below: the item to evaluate.
Q: Could you tell me which melting point is on file for "CCSc1cc(C2CCC2)cnc1-c1nc2cc(C(F)(F)F)cnc2n1C" ?
A: 136 to 138 °C
